Target: GST-Siah2 (Mus musculus, UniProt Q06986)
Sequence (Q06986 whole entry): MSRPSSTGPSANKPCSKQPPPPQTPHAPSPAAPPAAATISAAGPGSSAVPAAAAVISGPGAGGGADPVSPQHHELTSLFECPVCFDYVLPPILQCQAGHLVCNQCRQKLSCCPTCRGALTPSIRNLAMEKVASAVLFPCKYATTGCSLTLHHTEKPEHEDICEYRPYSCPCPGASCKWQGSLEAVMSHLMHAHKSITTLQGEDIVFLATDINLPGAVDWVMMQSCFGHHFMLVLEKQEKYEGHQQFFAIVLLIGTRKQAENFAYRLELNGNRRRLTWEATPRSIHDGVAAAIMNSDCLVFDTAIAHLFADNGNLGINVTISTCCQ
Reported Endpoint: pIC50
pIC50 here: minus log base 10 of the concentration, concentration in moles per litre.

Request: Query for GST-Siah2 (Mus musculus, UniProt Q06986): what pIC50 does the record show for CC1=CC(=O)c2ccccc2C1=O [compound 1, menadione] ?
Response: 4.70

====

Molecular target: GST-RNF5 (Homo sapiens)
Sequence (Q99942 whole entry): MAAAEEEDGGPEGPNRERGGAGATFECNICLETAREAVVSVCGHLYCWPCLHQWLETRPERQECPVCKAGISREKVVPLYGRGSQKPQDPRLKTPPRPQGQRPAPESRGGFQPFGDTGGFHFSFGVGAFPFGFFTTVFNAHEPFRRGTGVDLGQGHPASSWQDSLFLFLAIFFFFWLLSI
Test: Meso Scale electro-chemiluminescent RNF5 ubiquitination assay
Assay type: biochemical
Reported Endpoint: IC50

Request: Item under review: CC1=CC(=O)c2ccccc2C1=O [compound 1, menadione] . Reported IC50?
Response: > 100 µM
